Would you kindly list amount of active compound present, % of start for each of these compounds?
assay: Stability of multivitamin soft capsules in PVC/PVDC-aluminium blister, 40° C./75% RH; assay type: physicochemical; conditions: Multivitamin soft capsule batch 9018401, 3 months
Numbers only, in %.

Before answering, review these 3 worked examples.
compound: Nc1nc2ncc(CNc3ccc(C(=O)N[C@@H](CCC(=O)O)C(=O)O)cc3)nc2c(=O)[nH]1
endpoint.value: 92
--
compound: O=C1O[C@H]([C@@H](O)CO)C(O)=C1O
endpoint.value: 76
--
compound: Cc1ncc(C[n+]2csc(CCO)c2C)c(N)n1.Cl.[Cl-] [Thiamine*HCL]
endpoint.value: 87

Turning now to a further record.
amount of active compound present, % of start recorded for this compound, CC(C)(CO)[C@@H](O)C(=O)NCCCO , is 72
